system.under.test: T1, Active MMP-9 enzyme (UniProt P14780 107-707, limits assumed)
T1 construct: Bought as 'Active MMP-9 enzyme' from Calbiochem
procedure.details: enzyme inhibition of MMP-9 (FRET substrate peptide cleavage, inhibitory constants derived from the curves)
Primed or numbered codes have the meaning given here. Where no end group is shown, it is not given here. PSDE = pyridine disulfide ethylenediaminetetraacetic acid; AFTA = 2-amino-4-fluorophenol N,N,O-triacetic acid; AFTA″ = not defined here
endpoint.label: pKi
Answers are plain numbers, as −log10 of the molar value.

Some entries whose results are on file:
- binder: "{AFTA″}-CTCVP (cysteine pairing not given here; reading uncertain, also called ChepPep-6; chelating peptide (CP)) [ChePep-6 (AFTA combined with a peptide having SEQ ID No. 8)]"
  value.observed: 3.90
- binder: "D(IDA)SAVPVH-NH2 [ChePep-2 (IDA coupled with a peptide having SEQ ID No. 5)]"
  value.observed: 4.17
- binder: "IYTAC(PSDE)MSAV (not fully specified (C-terminus)) [ChePep-3 (PSDE combined with a peptide having SEQ ID No. 6)]"
  value.observed: 3.46

Now let's try a different one.
Task: Look at this binder and give its reported pKi. {AFTA}-VHTHLCD (also called ChepPep-5) [ChePep-5 (AFTA combined with a peptide having SEQ ID No. 7)]
Result: 3.66

Measured values drawn from patent US20030073808A1 for this set.
